- Test system: OVCAR-8
- experiment summary: NCI tumour cell line growth inhibition, 48 h
The source made the active and inactive calls. Cut-off read from the data, not from the text of the source: active = GI50 up to about 1.1 µM and inactive = higher.
Reported GI50 values for a set of molecules

Field: example entries. Status: answers known.
COc1ccc(-n2c(=O)[nH]n(C(C)=O)c2=O)cc1    > 100 µM (inactive)
CC(=O)CC(=O)CCC(=O)Nc1cccc(C(F)(F)F)c1    > 100 µM (inactive)
CN(C)c1ccc(/C=N/c2ccc(-c3nc4ccccc4o3)cc2)cc1    31.8 µM (inactive)
CC1(C)Oc2ccc(NC(=O)CCC(N)C(=O)O)cc2O1 (stereo not drawn)    > 100 µM (inactive)
O=[N+]([O-])c1cnccc1-n1nnc2ccccc21    17.7 µM (inactive)
N/N=C(/CC(O)(C(F)(F)F)C(F)(F)F)c1ccccc1    > 10 µM (inactive)

Q. Endpoint output: GI50 of O=c1[nH]ncc2[nH]c3c4ccccc4ccc3c12 . Value?
A. 51.3 µM (inactive)

Q. Endpoint output: GI50 of COC(=O)C1CC23C=CCN4CC(C2C)C2(c5ccccc5NC12)C43 (stereo not drawn) . Value?
A. > 100 µM (inactive)
